Method: Cytotoxicity against human Panc28 cells
Type: functional, cell-based
Endpoint label: IC50 (µM)

chemical_smiles=COC(=O)[C@@]1(C)CC[C@]2(C)CC[C@]3(C)C(=CC(=O)[C@@H]4[C@@]5(C)C=C(I)C(=O)C(C)(C)[C@@H]5CC[C@]43C)[C@@H]2C1 recorded_number=12.8
chemical_smiles=COC(=O)[C@@]1(C)CC[C@]2(C)CC[C@]3(C)C(=CC(=O)[C@@H]4[C@@]5(C)C=C(S(C)(=O)=O)C(=O)C(C)(C)[C@@H]5CC[C@]43C)[C@@H]2C1 recorded_number=9.75
chemical_smiles=COC(=O)[C@@]1(C)CC[C@]2(C)CC[C@]3(C)C(=CC(=O)[C@@H]4[C@@]5(C)C=C(P(=O)(OC)OC)C(=O)C(C)(C)[C@@H]5CC[C@]43C)[C@@H]2C1 recorded_number=8.14

* * *

Method: Cytotoxicity against human Panc28 cells
Assay type: functional, cell-based
Endpoint label: IC50 (nM)

compound=COC(=O)[C@]12CC[C@@H](C)[C@H](C)[C@H]1C1=CC[C@@H]3[C@@]4(C)C=C(I)C(=O)C(C)(C)[C@@H]4CC[C@@]3(C)[C@]1(C)CC2 endpoint_label=IC50 recorded_number=13500
compound=COC(=O)[C@@]1(C)CC[C@]2(C)CC[C@]3(C)[C@H](C(=O)C=C4[C@@]5(C)C=C(C(F)(F)F)C(=O)C(C)(C)[C@@H]5CC[C@]43C)[C@@H]2C1 endpoint_label=IC50 recorded_number=1130
compound=COC(=O)[C@]12CC[C@@H](C)[C@H](C)[C@H]1C1=CC[C@@H]3[C@@]4(C)C=C(C#N)C(=O)C(C)(C)[C@@H]4CC[C@@]3(C)[C@]1(C)CC2 endpoint_label=IC50 recorded_number=970
compound="COC(=O)[C@]12CC[C@@H](C)[C@H](C)[C@H]1C1=CC[C@@H]3[C@@]4(C)CC[C@H](O)C(C)(C)[C@@H]4CC[C@@]3(C)[C@]1(C)CC2 [METHYL URSOLATE]" endpoint_label=IC50 recorded_number=10600
compound=COC(=O)[C@@]1(C)CC[C@]2(C)CC[C@]3(C)C(=CC(=O)[C@@H]4[C@@]5(C)C=C(C#N)C(=O)C(C)(C)[C@@H]5CC[C@]43C)[C@@H]2C1 endpoint_label=IC50 recorded_number=1800
compound=COC(=O)[C@@]1(C)CC[C@]2(C)CC[C@]3(C)C(=CC(=O)[C@@H]4[C@@]5(C)C=C(C(F)(F)F)C(=O)C(C)(C)[C@@H]5CC[C@]43C)[C@@H]2C1 endpoint_label=IC50 recorded_number=1140
compound=COC(=O)[C@@]1(C)CC[C@]2(C)CC[C@]3(C)[C@H](C(=O)C=C4[C@@]5(C)C=C(I)C(=O)C(C)(C)[C@@H]5CC[C@]43C)[C@@H]2C1 endpoint_label=IC50 recorded_number=3660
compound=CC1(C)C(=O)C(C#N)=C[C@]2(C)[C@H]3C(=O)C=C4[C@@H]5C[C@@](C)(C(=O)O)CC[C@]5(C)CC[C@@]4(C)[C@]3(C)CC[C@@H]12 endpoint_label=IC50 recorded_number=7320
compound=COC(=O)[C@]12CC[C@@H](C)[C@H](C)[C@H]1C1=CC[C@@H]3[C@@]4(C)C=C(C(F)(F)F)C(=O)C(C)(C)[C@@H]4CC[C@@]3(C)[C@]1(C)CC2 endpoint_label=IC50 recorded_number=1130

* * *

pIC50 for assorted compounds
Test system: PANC-1
Method: Cytotoxicity against human Panc1 cells
Assay type: functional, cell-based
pIC50: −log10 of the molar value.
Endpoint label: pIC50

compound=COC(=O)[C@]12CC[C@@H](C)[C@H](C)[C@H]1C1=CC[C@@H]3[C@@]4(C)C=C(I)C(=O)C(C)(C)[C@@H]4CC[C@@]3(C)[C@]1(C)CC2 recorded_number=5.16
compound=COC(=O)[C@]12CC[C@@H](C)[C@H](C)[C@H]1C1=CC[C@@H]3[C@@]4(C)C=C(C(F)(F)F)C(=O)C(C)(C)[C@@H]4CC[C@@]3(C)[C@]1(C)CC2 recorded_number=6.19
compound=COC(=O)[C@@]1(C)CC[C@]2(C)CC[C@]3(C)C(=CC(=O)[C@@H]4[C@@]5(C)C=C(C#N)C(=O)C(C)(C)[C@@H]5CC[C@]43C)[C@@H]2C1 recorded_number=5.91
compound=COC(=O)[C@]12CC[C@@H](C)[C@H](C)[C@H]1C1=CC[C@@H]3[C@@]4(C)C=C(C#N)C(=O)C(C)(C)[C@@H]4CC[C@@]3(C)[C@]1(C)CC2 recorded_number=6.28
compound="COC(=O)[C@]12CC[C@@H](C)[C@H](C)[C@H]1C1=CC[C@@H]3[C@@]4(C)CC[C@H](O)C(C)(C)[C@@H]4CC[C@@]3(C)[C@]1(C)CC2 [METHYL URSOLATE]" recorded_number=4.93

* * *

System: PANC-1
Method: Cytotoxicity against human Panc1 cells
Assay type: functional, cell-based
Parameter IC50: see the listing below.
Endpoint label: IC50 (µM)

chemical_smiles=COC(=O)[C@@]1(C)CC[C@]2(C)CC[C@]3(C)[C@H](C(=O)C=C4[C@@]5(C)C=C(C(F)(F)F)C(=O)C(C)(C)[C@@H]5CC[C@]43C)[C@@H]2C1 recorded_number=0.68
chemical_smiles=COC(=O)[C@@]1(C)CC[C@]2(C)CC[C@]3(C)C(=CC(=O)[C@@H]4[C@@]5(C)C=C(I)C(=O)C(C)(C)[C@@H]5CC[C@]43C)[C@@H]2C1 recorded_number=4.08
chemical_smiles=COC(=O)[C@@]1(C)CC[C@]2(C)CC[C@]3(C)C(=CC(=O)[C@@H]4[C@@]5(C)C=C(P(=O)(OC)OC)C(=O)C(C)(C)[C@@H]5CC[C@]43C)[C@@H]2C1 recorded_number=6.11
chemical_smiles=COC(=O)[C@@]1(C)CC[C@]2(C)CC[C@]3(C)C(=CC(=O)[C@@H]4[C@@]5(C)C=C(S(C)(=O)=O)C(=O)C(C)(C)[C@@H]5CC[C@]43C)[C@@H]2C1 recorded_number=7.69
chemical_smiles=COC(=O)[C@@]1(C)CC[C@]2(C)CC[C@]3(C)[C@H](C(=O)C=C4[C@@]5(C)C=C(I)C(=O)C(C)(C)[C@@H]5CC[C@]43C)[C@@H]2C1 recorded_number=4.45
chemical_smiles=CC1(C)C(=O)C(C#N)=C[C@]2(C)[C@H]3C(=O)C=C4[C@@H]5C[C@@](C)(C(=O)O)CC[C@]5(C)CC[C@@]4(C)[C@]3(C)CC[C@@H]12 recorded_number=3.81
chemical_smiles=COC(=O)[C@@]1(C)CC[C@]2(C)CC[C@]3(C)C(=CC(=O)[C@@H]4[C@@]5(C)C=C(C(F)(F)F)C(=O)C(C)(C)[C@@H]5CC[C@]43C)[C@@H]2C1 recorded_number=0.82
